- target.or.system: recombinant human PARP (PARP1) (Homo sapiens)
- Construct: Full length human PARP (PARP1) is assembled from PCR fragments; His6 tag with TEV site, from the pFastBac-HTb vector (own knowledge of the vector); made in house; host or cells: insect cells, baculovirus (Bac-to-Bac, Gibco-BRL)
- test.method.notes: PARP enzyme assay, Method A (radioactivity or 'ELISA' enzyme assay with partially purified enzyme)
- Format: biochemical
- measurement.setup: recombinant human PARP preparation, radioactive or ELISA enzyme assay
Where a name gives a salt, the structure may show the parent alone.
Parameter: IC50. Scope: all listed entries.
Quick note: give the figure in µM, leave out the unit.

# example entries with known answers
- compound: "CCc1cc(-c2ccc(S(=O)(=O)NCCN3CCCC3)o2)c(C)[nH]c1=O [Example 53, hydrochloride]"
  endpoint.unit: "µM"
  IC50: 0.16
- compound: "CCc1cc(-c2ccc(S(=O)(=O)N3CCN(CCc4ccccn4)CC3)s2)c(C)[nH]c1=O [Example 60, dihydrochloride]"
  endpoint.unit: "µM"
  IC50: 1.7
- compound: "CCc1cc(-c2ccc(CNC3CCN(c4nccc(C(F)(F)F)n4)CC3)s2)c(C)[nH]c1=O [Example 139, dihydrochloride]"
  endpoint.unit: "µM"
  IC50: 2.6

In the following, a different compound is considered.
Exercise: Which IC50 is reported for this compound? CCc1cc(-c2ccc(CNCc3ccc(C)cc3)s2)c(C)[nH]c1=O [Example 166, hydrochloride]
Solution: 0.68

---

- target.or.system: recombinant human PARP (PARP1) (Homo sapiens, UniProt P09874)
- Construct: Full length human PARP (PARP1) is assembled from PCR fragments; His6 tag with TEV site, from the pFastBac-HTb vector (own knowledge of the vector); made in house; host or cells: insect cells, baculovirus (Bac-to-Bac, Gibco-BRL)
- Sequence (P09874 whole entry, the tested form may be a part): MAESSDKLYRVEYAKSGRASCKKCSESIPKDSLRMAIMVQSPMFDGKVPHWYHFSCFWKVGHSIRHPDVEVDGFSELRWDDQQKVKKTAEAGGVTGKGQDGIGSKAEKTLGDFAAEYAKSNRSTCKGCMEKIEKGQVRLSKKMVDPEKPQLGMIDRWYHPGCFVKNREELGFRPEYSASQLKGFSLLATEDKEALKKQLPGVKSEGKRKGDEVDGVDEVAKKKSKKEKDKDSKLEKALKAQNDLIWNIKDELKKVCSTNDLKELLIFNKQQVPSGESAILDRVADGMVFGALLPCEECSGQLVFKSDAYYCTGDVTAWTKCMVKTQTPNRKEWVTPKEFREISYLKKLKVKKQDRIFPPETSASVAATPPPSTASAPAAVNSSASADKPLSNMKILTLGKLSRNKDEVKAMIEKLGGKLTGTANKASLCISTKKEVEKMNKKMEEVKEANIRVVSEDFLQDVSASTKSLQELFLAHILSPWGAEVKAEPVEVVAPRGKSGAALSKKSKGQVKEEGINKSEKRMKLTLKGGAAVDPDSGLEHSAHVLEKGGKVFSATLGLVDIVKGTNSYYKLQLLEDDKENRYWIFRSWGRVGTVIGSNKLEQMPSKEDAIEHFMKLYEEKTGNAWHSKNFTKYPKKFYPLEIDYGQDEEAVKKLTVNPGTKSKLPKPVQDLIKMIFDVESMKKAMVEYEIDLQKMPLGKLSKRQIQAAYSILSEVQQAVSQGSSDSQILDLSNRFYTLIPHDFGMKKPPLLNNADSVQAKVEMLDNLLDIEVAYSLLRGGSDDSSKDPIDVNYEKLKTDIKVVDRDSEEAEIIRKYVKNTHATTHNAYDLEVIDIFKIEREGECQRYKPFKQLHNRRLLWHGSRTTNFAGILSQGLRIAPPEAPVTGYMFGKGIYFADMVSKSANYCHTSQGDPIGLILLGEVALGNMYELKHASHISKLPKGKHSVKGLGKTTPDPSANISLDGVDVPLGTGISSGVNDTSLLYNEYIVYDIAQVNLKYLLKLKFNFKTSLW
- test.method.notes: PARP enzyme assay, Method A (radioactivity or 'ELISA' enzyme assay with partially purified enzyme)
- Assay type: biochemical
- measurement.setup: recombinant human PARP preparation, radioactive or ELISA enzyme assay
Where a name gives a salt, the structure may show the parent alone.
Parameter: IC50. Scope: all listed entries.
Quick note: give the figure in µM, leave out the unit.

# example entries with known answers
- molecule: "CCc1cc(-c2ccc(CNCC3CCCCC3)s2)c(C)[nH]c1=O [Example 143, hydrochloride]"
  IC50 (µM): 0.39
- molecule: "CCOC(=O)N1CCN(S(=O)(=O)c2ccc(-c3cc(CC)c(=O)[nH]c3C)s2)CC1"
  IC50 (µM): 10.8

Exercise: Which IC50 is reported for this molecule? CCc1cc(-c2ccc(S(=O)(=O)N3CCN(c4ccncc4)CC3)o2)c(C)[nH]c1=O [Example 45, hydrochloride]
Solution: 0.22

Exercise: Which IC50 is reported for this molecule? CCc1cc(-c2ccc(CNCc3cccs3)s2)c(C)[nH]c1=O [Example 170, hydrochloride]
Solution: 0.28

---

- target.or.system: recombinant human PARP (PARP1) (Homo sapiens, UniProt P09874)
- Construct: Full length human PARP (PARP1) is assembled from PCR fragments; His6 tag with TEV site, from the pFastBac-HTb vector (own knowledge of the vector); made in house; host or cells: insect cells, baculovirus (Bac-to-Bac, Gibco-BRL)
- test.method.notes: PARP enzyme assay, Method A (radioactivity or 'ELISA' enzyme assay with partially purified enzyme)
- Format: biochemical
- measurement.setup: recombinant human PARP preparation, radioactive or ELISA enzyme assay
Structures can show the parent of a compound that is named as a salt.
Field: label. Allowed values: fulfilled (IC50 < 0.7 µM) or not fulfilled (IC50 >= 0.7 µM).

Example results:
- molecule: "CCc1cc(-c2cccc(C#N)c2)c(C)[nH]c1=O"
  answer.label: "fulfilled"
- molecule: "CCc1cc(-c2ccc(CN)s2)c(C)[nH]c1=O [Example 175, hydrochloride]"
  answer.label: "fulfilled"
- molecule: "CCc1cc(-c2ccc(S(=O)(=O)N3CCOCC3)s2)c(C)[nH]c1=O"
  answer.label: "not fulfilled"

Exercise: I'd appreciate it if you could check whether CCc1cc(-c2ccc(CNC(=O)CN(C)C)s2)c(C)[nH]c1=O [Example 177, hydrochloride] has IC50 smaller than 0.7 µM.
Solution: fulfilled

Attribution: patent US8173682B2
